target: T1, Prostate-specific membrane antigen (PSMA) (human, UniProt Q04609 44-750, limits assumed); assay: fluorescence polarization assay, FP(h), PSMA
T1 construct: the construct used in the fluorescence polarization and enzyme assays is not described (methods cited from Shen et al 2013 and WO 2009/070302); also called Glutamate carboxypeptidase II; GCPII
T1 sequence (Q04609 44-750 limits assumed): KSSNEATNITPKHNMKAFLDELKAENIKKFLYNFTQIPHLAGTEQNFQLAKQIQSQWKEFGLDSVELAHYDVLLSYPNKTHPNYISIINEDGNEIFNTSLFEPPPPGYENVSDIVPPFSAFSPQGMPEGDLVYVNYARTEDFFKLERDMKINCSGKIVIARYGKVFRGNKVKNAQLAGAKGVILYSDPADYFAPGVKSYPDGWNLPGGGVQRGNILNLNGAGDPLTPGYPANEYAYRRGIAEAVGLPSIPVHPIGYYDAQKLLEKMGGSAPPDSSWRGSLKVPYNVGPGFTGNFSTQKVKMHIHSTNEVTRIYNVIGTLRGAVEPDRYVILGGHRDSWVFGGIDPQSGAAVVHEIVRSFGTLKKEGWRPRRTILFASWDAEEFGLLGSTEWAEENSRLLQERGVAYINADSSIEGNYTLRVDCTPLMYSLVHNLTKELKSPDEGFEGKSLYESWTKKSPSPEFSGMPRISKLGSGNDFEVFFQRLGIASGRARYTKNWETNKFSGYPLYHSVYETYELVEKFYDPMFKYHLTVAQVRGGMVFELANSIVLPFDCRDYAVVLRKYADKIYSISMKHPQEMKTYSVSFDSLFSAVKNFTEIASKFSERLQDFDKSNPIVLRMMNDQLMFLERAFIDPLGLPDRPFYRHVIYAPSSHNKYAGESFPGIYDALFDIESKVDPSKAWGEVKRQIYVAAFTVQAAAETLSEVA
*1 amine or outer side, *2 acyl side, *3 side chain or, on linkers, in order; H or OH if unused. Bridges are numbered along the chain shown (N, C = ends). Where no end group is shown, it is not given here. TBMB = c1c(C[*:1])cc(C[*:3])cc1C[*:2]
Quick list: pKi per entry.
Answer as the number alone; pKi is minus log10 of concentration in mol/L.

Solved cases (3 shown):
# get_value(readout='pKi', item= EVCWDCFMMEDGTCAXXXXXXK (not fully specified; N-terminal acetyl (Ac); D-residue at the N-terminus (printed (D-E) / (D-Gln)); Sar6 = six sarcosine residues; C-terminal D-Lys; Ci, Cii and Ciii cyclised with TBMB (tri-substituted 1,3,5-trismethylbenzene scaffold), Bicyclic peptide on TBMB scaffold) [21-31-04-T01-N007] )
7.52

# get_value(readout='pKi', item= FCSECYMMEDGTCA (linker 2-5-13 via TBMB (inferred), Bicyclic peptide on TBMB scaffold) [21-31-11-T01-N001] )
8.22

# get_value(readout='pKi', item= CIECYIMEDGTCA (linker 1-4-12 via TBMB (inferred), Bicyclic peptide on TBMB scaffold) [21-31-01-N001] )
7.15

Could you now consider this next binder?
# get_value(readout='pKi', item= ACMVCHMMEDGTCA (linker 2-5-13 via TBMB (inferred), Bicyclic peptide on TBMB scaffold) [21-31-N002] )
7.40
